# method.summary: physchem
Structures can show the parent of a compound that is named as a salt.
observed.property: logP

>>> print(df.to_string())
                                   molecule  observed_property  value_observed
0  OCCO [FA8, Ethylene glycol, reference compound]               logP            -1.2
1  COC(=O)c1ccc(O)cc1 [FA9, Methyl-4-hydroxybenzoate sodium salt, reference compound]               logP           -1.34
2  CC(O)CCO (centres unmarked) [FA1, 1,3-butanediol]               logP           -0.29
3      OCCOc1ccccc1 [FA6, 2-phenoxyethanol]               logP             1.1
4  OCCOCCO [FA10, 2,2′-oxydiethanol, reference compound]               logP           -1.47

###

# method.summary: physchem
# cond: octanol/water
observed.property: logP

In [3]: df
Out[3]:
                         molecule  value_observed
0                         OCCCCCO            0.27
1                        OCCCCCCO            0.76
2  CCCCC(CC)CO (stereo not shown)            2.73
3   CCCCC(O)CO (stereo not shown)            0.69
